assayed_target: truncated form of PTP1B (corresponding to the first 321 amino acids) (Homo sapiens, UniProt P18031)
Construct: truncated form of PTP1B (corresponding to the first 321 amino acids)
Sequence (P18031 1-321): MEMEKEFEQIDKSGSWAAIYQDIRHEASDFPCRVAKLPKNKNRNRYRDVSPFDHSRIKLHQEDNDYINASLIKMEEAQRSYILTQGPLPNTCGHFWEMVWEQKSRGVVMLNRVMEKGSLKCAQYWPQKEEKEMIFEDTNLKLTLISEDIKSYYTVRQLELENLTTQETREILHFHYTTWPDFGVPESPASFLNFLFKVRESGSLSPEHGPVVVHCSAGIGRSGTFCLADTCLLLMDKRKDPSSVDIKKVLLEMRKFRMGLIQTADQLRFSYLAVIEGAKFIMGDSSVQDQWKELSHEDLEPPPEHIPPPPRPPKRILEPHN
assay_explanation: Inhibition of PTP1B, p-nitrophenyl phosphate substrate
condition_set: substrate p-nitrophenyl phosphate 0.16 to 10 mM; 100 mM sodium acetate pH 5.5; 25° C. for 60 minutes; absorbance at 405 nm
pKi: −log10 of the molar value.
property_measured: pKi

• O=C(O)C(=O)Nc1sc2c(c1C(=O)O)C[C@@H](CNC(=O)c1ccc(NC(=O)c3ccccc3)cc1)NC2 = 6.80
• CCOc1ccc(C(=O)NCC2Cc3c(sc(NC(=O)C(=O)O)c3C(=O)O)CN2)c(O)c1 (stereo not shown) = 6.47
• CC(=O)Nc1ccc(S(=O)(=O)NC[C@H]2Cc3c(sc(NC(=O)C(=O)O)c3C(=O)O)CN2)cc1 = 5.46
• O=C(O)C(=O)Nc1sc2c(c1C(=O)O)CC(CNC(=O)c1ccccc1O)NC2 (stereo not shown) = 6.17
• Cc1nn(-c2ccccc2)nc1C(=O)NCC1Cc2c(sc(NC(=O)C(=O)O)c2C(=O)O)CN1 (stereo not shown) = 5.82
• O=C(NC[C@@H]1Cc2c(sc(NC(=O)C(=O)O)c2C(=O)O)CN1)Nc1ccc(Oc2ccccc2)cc1 = 6.70
• COc1ccc(CN2Cc3sc(NC(=O)C(=O)O)c(C(=O)O)c3CC2CNC(=O)c2cc3cc(OCc4ccccc4)ccc3[nH]2)cc1 (stereo not shown) = 5.37
• COc1ccc(CN2Cc3sc(NC(=O)C(=O)O)c(C(=O)O)c3CC2CNC(=O)c2cccc3ccccc23)cc1 (stereo not shown) = 4.70
• COc1ccc(CN2Cc3sc(NC(=O)C(=O)O)c(C(=O)O)c3CC2CNC(=O)c2ccc(NC(=O)c3ccccc3)cc2)cc1 (stereo not shown) = 5.52
• CC(=O)Nc1ccc(S(=O)(=O)NC[C@@H]2Cc3c(sc(NC(=O)C(=O)O)c3C(=O)O)CN2)cc1 = 6.89
• COc1ccc(CN2Cc3sc(NC(=O)C(=O)O)c(C(=O)O)c3CC2CNC(=O)c2cc(-c3ccc(C)cc3)nc3ccc(Br)cc23)cc1 (stereo not shown) = 4.00
• O=C(O)C(=O)Nc1sc2c(c1C(=O)O)CC(CNC(=O)c1ccc(-c3ccccc3)cc1)NC2 (stereo not shown) = 6.66
• COc1ccc2cc(O)c(C(=O)NC[C@@H]3Cc4c(sc(NC(=O)C(=O)O)c4C(=O)O)CN3)cc2c1 = 6.68
• O=C(O)C(=O)Nc1sc2c(c1C(=O)O)CC(CNC(=O)c1cc3ccccc3[nH]1)NC2 (stereo not shown) = 6.17
• O=C(O)C(=O)Nc1sc2c(c1C(=O)O)C[C@@H](CNC(=O)c1cc3ccccc3cc1O)NC2 = 6.66
• O=C(O)C(=O)Nc1sc2c(c1C(=O)O)CC(CNC(=O)c1cccc(O)c1)NC2 (stereo not shown) = 6.02
• O=C(O)C(=O)Nc1sc2c(c1C(=O)O)CC(CNC(=O)c1ccc(NC(=O)c3ccccc3)cc1)NC2 (stereo not shown) = 6.60
• O=C(O)C(=O)Nc1sc2c(c1C(=O)O)C[C@H](CNC(=O)c1ccc(NC(=O)c3ccccc3)cc1)NC2 = 5.49
• O=C(O)C(=O)Nc1sc2c(c1C(=O)O)C[C@@H](CNC(=O)c1ccc3ccccc3c1O)NC2 = 6.82
• O=C(O)C(=O)Nc1sc2c(c1C(=O)O)C[C@@H](CNC(=O)c1cccc(Oc3ccccc3)c1)NC2 = 6.57
• O=C(O)C(=O)Nc1sc2c(c1C(=O)O)CC(CNC(=O)c1ccccc1)NC2 (stereo not shown) = 6.28
• COc1ccc(CN2Cc3sc(NC(=O)C(=O)O)c(C(=O)O)c3CC2CNC(=O)c2nn(-c3ccccc3)nc2C)cc1 (stereo not shown) = 4.70
